- testName: IV pharmacokinetics of Compound 1 and its glucuronides in rats
- Format: in vivo, rat
- conditionContext: Sprague Dawley, rat, plasma; male rats N=4; Compound 1 2 mg/kg IV; retro orbital sinus; 4 hrs
This listing pairs compounds with measured concentration at 4 h.

| compound | concentration at 4 h (ng/mL) |
| --- | --- |
| COc1cc2c(cc1OC)-c1n[nH]c(Nc3cccc(F)c3)c1C2 | 1.2 |
| COc1cc2c(cc1OC)-c1nn(C3OC(C(=O)O)C(O)C(O)C3O)c(Nc3cccc(F)c3)c1C2 (stereo in doubt) | 0 |
| COc1cc2c(cc1OC)-c1n[nH]c(N(c3cccc(F)c3)[C@H]3O[C@@H](C(=O)O)[C@H](O)[C@@H](O)[C@@H]3O)c1C2 | 68.6 |
